Exercise: for every item that follows, state its recorded melting point.

// lookup melting point for CCCOCc1ccccc1Oc1ccc2c(c1)C=C(C(=O)Nc1ccc(CN(C)C3CCOCC3)cc1)CCS2(=O)=O [Compound 115]
162 to 164 °C

What does the record list as melting point for Cc1ccc(C2=Cc3cc(C(=O)Nc4ccc(C[N+](C)(C)C5CCOCC5)cc4)ccc3OC2)cc1.[I-] [Compound 28] ?
215 to 218 °C (dec.)

Which melting point is reported for this compound? CCCOCCOc1ccc(Oc2ccc3c(c2)C=C(C(=O)Nc2ccc(CN(C)C4CCOCC4)cc2)CCS3(=O)=O)cc1OCC [Compound 114]
159 to 160 °C

Find the recorded melting point belonging to Cc1ccc(C2=Cc3cc(C(=O)N[C@H]4CC[C@H](CN(C)C5CCOCC5)CC4)ccc3OC2)cc1 [Compound 68] and report it.
205 to 207 °C

Name the reported melting point value associated with the compound Cc1ccc(-c2ccc3cc(C(=O)Nc4ccc(CN(C)C5CCOCC5)cc4)[nH]c3c2)cc1 [Compound 23]
246 to 250 °C

Please report the recorded melting point for CCOCCCc1ccc(Oc2ccc3c(c2)C=C(C(=O)Nc2ccc(CN(C)C4CCOCC4)cc2)CCS3(=O)=O)cc1 [Compound 125] .
156 to 157 °C

melting point lookup needed for COc1ccccc1COc1ccc2c(c1)C=C(C(=O)Nc1ccc(CN(C)C3CCOCC3)cc1)CCS2(=O)=O [Compound 102] , thanks.
223 to 225 °C

Query: melting point; subject: Cc1ccc(-c2ccc3c(c2)C=C(N(C)c2ccc(CN(C)C4CCOCC4)cc2)CCO3)cc1 [Compound 34]
158 to 160 °C

# input compound: Cc1ccc(-c2ccc3c(c2)C=C(CN2CCC(NC4CCOCC4)CC2)CCO3)cc1 [Compound 80] ; wanted: its melting point
101 to 103 °C

Quick check: melting point of CCOCCOc1ccc(COc2ccc3c(c2)C=C(C(=O)Nc2ccc(CN(C)C4CCOCC4)cc2)CCS3(=O)=O)cc1 [Compound 107] ?
185 to 187 °C

# query: melting point of entry Cc1ccc(-c2ccc3c(c2)C=C(C(=O)NC2CCN(CC4=CCCCCCCC4)CC2)CCO3)cc1 [Compound 59]
128 to 130 °C

Entry Cc1ccc(-c2cncc(/C=C/C(=O)N[C@H]3CC[C@H](CN(C)C4CCOCC4)CC3)c2)cc1 [Compound 73] has what melting point?
233 to 236 °C

Return reported melting point; argument: Cc1ccc(-c2ccc3c(c2)C=C(C(=O)N[C@H]2CC[C@H](CN(C)C4CCN(C(=O)OC(C)(C)C)CC4)CC2)CCO3)cc1 [Compound 65]
146 to 150 °C

Can you share its melting point? I mean this compound: Cc1ccc(COc2cccc(/C=C/c3ccc(CN4CCCCC4)cc3)c2)cc1 [Compound 97]
87 to 88 °C

Given the compound Cc1ccc(COc2cccc(/C=C/c3ccc(C[N+]4(C)CCCCC4)cc3)c2)cc1.[I-] [Compound 98] , what is its reported melting point?
189 to 192 °C

* * *

Exercise: for every item that follows, state its recorded melting point.

Could you share which melting point value was measured for "CCNC(=N)c1ccc(NC(=O)C2=Cc3cc(-c4ccc(C)cc4)ccc3OCC2)cc1.Cl" ?
> 300 °C

Request the reported melting point associated with Cc1ccc(C2=Cc3cc(C(=O)Nc4ccc(CN(C)C5CCOCC5)cc4)ccc3OC2)cc1 [Compound 22]
230 to 235 °C

Consider the molecule Cc1ccc(-c2ccc3nc(C)c(C(=O)N[C@H]4CC[C@H](CN(C)C5CCOCC5)CC4)cc3c2)cc1 [Compound 70] and give its measured melting point.
163 to 165 °C

Could you share which melting point value was measured for Cc1ccc(-c2csc(/C=C/C(=O)N[C@H]3CC[C@H](CN(C)C4CCOCC4)CC3)c2)cc1 [Compound 72] ?
180 to 183 °C

Could you tell me which melting point is on file for CN(Cc1ccc(NC(=O)C2=Cc3cc(OCc4cccnc4)ccc3S(=O)(=O)CC2)cc1)C1CCOCC1 [Compound 4] ?
225 to 229 °C

Give its melting point value. Item: Cc1ccc(-c2ccc3c(c2)C=C(C(=O)N[C@H]2CC[C@H](CN(C)C4CCOCC4)CC2)CCO3)cc1 [Compound 63]
144 to 146 °C

Which measured melting point value corresponds to Cc1ccc(-c2ccc3cc(C(=O)Nc4ccc(CN(C)C5CCOCC5)cc4)n(C)c3c2)cc1 [Compound 24] ?
225 to 226 °C

Would you mind telling me what melting point value was observed for CCCOc1ccccc1CCOc1ccc2c(c1)C=C(C(=O)Nc1ccc(CN(C)C3CCOCC3)cc1)CCS2(=O)=O [Compound 106] ?
161 to 162 °C

# get_value(readout='melting point', item= Cc1ccc(-c2ccc3c(c2)C=C(C(=O)NC2CCN(CCC4CCCCC4)CC2)CCO3)cc1 [Compound 60] )
193 to 196 °C

Which value of melting point has been reported for "Cc1ccc(-c2ccc3c(c2)C=C(C(=O)Nc2ccc(C(=N)N)cc2)CCO3)cc1.Cl" in the records?
294 to 296 °C

For the molecule shown here, CCOc1cccc(COc2ccc3c(c2)C=C(C(=O)Nc2ccc(CN(C)C4CCOCC4)cc2)CCS3(=O)=O)c1 [Compound 118] , give the reported melting point.
189 to 192 °C

If you can, please state the reported melting point value of COc1cccc(COc2ccc3c(c2)C=C(C(=O)Nc2ccc(CN(C)C4CCOCC4)cc2)CCS3(=O)=O)c1 [Compound 117] .
181 to 185 °C

Can you share its melting point? I mean this molecule: CCOc1ccccc1COc1ccc2c(c1)C=C(C(=O)Nc1ccc(CN(C)C3CCOCC3)cc1)CCS2(=O)=O [Compound 101]
211 to 214 °C

If you can, please state the reported melting point value of C[N+]1(Cc2ccc(NC(=O)c3cccc(OCc4cccc5ccccc45)c3)cc2)CCCCC1.[I-] [Compound 89] .
211 to 213 °C

Fill blank: measured melting point of the molecule CCOCCOc1ccccc1COc1ccc2c(c1)C=C(C(=O)Nc1ccc(CN(C)C3CCOCC3)cc1)CCS2(=O)=O [Compound 104] is ____.
132 to 136 °C

Param item = Cc1ccc(-c2ccc3c(c2)C=C(C(=O)NC2CCN(C4CCOCC4)CC2)CCO3)cc1 [Compound 56] ; retrieve measured melting point.
199 to 204 °C (dec.)

Request the reported melting point associated with CCCOCCOc1ccc(COc2ccc3c(c2)C=C(C(=O)Nc2ccc(CN(C)C4CCOCC4)cc2)CCS3(=O)=O)cc1 [Compound 108]
175 to 176 °C

If you can, please state the reported melting point value of CN(Cc1ccc(NC(=O)C2CCS(=O)(=O)c3ccc(OCc4ccc(F)cc4)cc3C2)cc1)C1CCOCC1 (stereo not drawn) [Compound 3] .
232 to 234 °C
